assay-details: Measurement of log P values by HPLC on reversed phase columns (EEC directive 79/831 Annex V.A8; methods [a] pH 2.3, [b] pH 2.7, [c] pH 7.8)
Assay type: physicochemical
recorded-conditions: method [c]: LC-MS at pH 7.8, 0.001 molar ammonium hydrogen carbonate in water / acetonitrile
experimental-endpoint: log P

Given item COC(c1ccc(F)cc1)C(C)NC(=O)c1ccccc1F (centres unmarked) , the value recorded as its log P is 3.02^[c];

Given item COC(c1ccc(Cl)cc1Cl)C1(NC(=O)c2ccccc2I)CC1 (centres unmarked) , the value recorded as its log P is 3.88^[c];

Given item COC(c1ccc(Cl)cc1)C(C)NC(=O)c1ccccc1C (centres unmarked) , the value recorded as its log P is 3.20^[c];

Given item COC(c1ccccc1Cl)C(C)NC(=O)c1c(F)cccc1F (centres unmarked) , the value recorded as its log P is 3.08^[c];

Given item CCOC(c1ccc(Cl)cc1Cl)C(C)NC(=O)c1ccccc1C(F)(F)F (centres unmarked) , the value recorded as its log P is 4.44^[c];

Given item COC(c1ccc(Cl)cc1)C(C)NC(=O)c1ccccc1I (centres unmarked) , the value recorded as its log P is 3.42^[c];

Given item CCOC(c1ccc(Cl)cc1Cl)C(C)NC(=O)c1ccccc1I (centres unmarked) , the value recorded as its log P is 4.56^[c];

Given item COC(c1ccccc1Cl)C(C)NC(=O)c1nccnc1C(F)(F)F (centres unmarked) , the value recorded as its log P is 3.10^[c];
